Reported folding stability dG unfold by item:
# method-summary: folding stability dG unfold (combined trypsin and chymotrypsin); higher = more stable

SAGGMMKIKITFADGTTKEIELPEDVTEVTITYDEKTGKVTITVRLKNGETKTITIPADKITKIEIESAGGS [r16_658_TrROS_Hall] ... > 6 kcal/mol

**Query** Sample SAGGSASMTTKRPVSPELRAKVEAAAAAGDPAITVTLPVTLPDGRTVTLTVTKDPTADTFTATVVSSAGGSA [r15_700_JUSTAS] — what was its folding stability dG unfold?
**Result** 0.221 kcal/mol

**Query** Moving on to the next sequence: SAGGPWHEITVRAKGPPGNTPEQAVDEVADELADNNPDFTVEIQEVEVNPEDGQVEATIRVEDGKIVSAGGS [r8_26_TrROS]
**Result** < -1 kcal/mol

**Query** Moving on to the next sequence: SAGGSAGGSAGMPPNTVVLRESLEPGRVVLTLAVVTPGSVASVEVTEEFPVVPGTGVVVGSAGGSAGGSAGG [r11_66_JUSTAS]
**Result** 0.139 kcal/mol

---

# method-summary: folding stability dG unfold (combined trypsin and chymotrypsin); higher = more stable
reported-property: folding stability dG unfold (kcal/mol)
Write the value in kcal/mol as a bare number.

SAGGSAGGSAGSMIEEAVEAAKASGDPDVTVDLETPEGRVTVTVTVDPATGTVTVTTSPESAGGSAGGSAGG [r17_475_JUSTAS] ... 1.86
SAGGSAGGSGSFSLSFPDADGVSVTLDPNTGIVTMSFNRPDANYTITLERYPDSIVVKEIKLPSAGGSAGGS [r20_60_JUSTAS] ... 1.32
SAGGSAGGSAGPWVPIAPGPNGMWIWAEPDPDKFTIRMFPMSPDGKIPDVQEHEIPPEDFSAGGSAGGSAGG [r11_88_TrROS] ... -0.216
SAGKPLPKLKTYEVDVPDNKKVKIEVYKLPDGTAIVKIKDDNGNESEIEIPLSLLENLSVEDLVKLAKSAGG [r19_47_TrMRF] ... 1.9
SAGNFNIKEQKETDGRRVIEIPMPGSGHEITIVFERNPDGPRKININMNGPMADYLREALPGIDRVEIISAG [r5_933_TrROS] ... 0.213

**Query** Sample SAMTYTLTPAGGKTITVTLNPDGSITITSTSTSSSLPLSPDAKITSVTFDAATGTITITLNSKPITIPASAG [r14_276_JUSTAS] — what was its folding stability dG unfold?
**Result** 1.92

---

# method-summary: folding stability dG unfold (combined trypsin and chymotrypsin); higher = more stable
Dear colleague, classification is by folding stability dG unfold, with ranges listed here: group 1: < 1 kcal/mol; group 2: ≥ 1 kcal/mol and < 3 kcal/mol; group 3: ≥ 3 kcal/mol

Solved entries:
SAGGSAGGSAGDNIYVFEIDIKIKPRKDPDGKWQPEIEINIKIKDIKPIPPNDPELKDLLSAGGSAGGSAGG [r11_236_TrROS] ... group 2
SAGGSAGGLLPDQRVRLRLTRTSPDGEPEEATVELTNIPSSITPSSTLTFPGEGDTWEVEEITTSAGGSAGG [r6_560_TrMRF] ... group 1

**Query** Which class holds SHMVTVTIYKNGVKVKETEIPLEEVEKMPEEEIIEFAAEIAKKNPGVNYTFTITRPSGPSTVSIDGPEKLKS [r1_477_JUSTAS] ?
**Result** group 2

**Query** Moving on to the next sequence: SAGGSAGGSAPEPVVAKLVEVVTLPDGTPVLLFVVDHPDGPPELRLSTDALIEGDDLVDPSSAGGSAGGSAG [r3_261_TrMRF]
**Result** group 1

**Query** Moving on to the next sequence: SAGGSAGGSAGGSVPSVKLPKVGLKTDPVSSVLDFGEEKGDPVSVSIHLTLFLPDGTILLSAGGSAGGSAGG [r11_890_JUSTAS]
**Result** group 1

**Query** Moving on to the next sequence: SAGGMKIIEIEYDEETGKYKFKIKIYDKKTGKLYEIEVEVDKKTGKLSIEEIAKKIAEKLGLPKDIKISAGG [r13_362_TrROS_Hall]
**Result** group 3

---

# method-summary: folding stability dG unfold from trypsin proteolysis; higher = more stable
reported-property: folding stability dG unfold (kcal/mol)
Write the value in kcal/mol as a bare number.

Consider the reported folding stability dG unfold for these sequences:
SGMIDVDLDYTTEDGRPVKVSASYDPATGVLTFKVPDNDDVIIATVTEVTTEDESVTVTLNVTRYSKELLSA [r9_587_JUSTAS] ... 0.957
SAGGSAGGSAGGMTTTTTAPESGDLVTIHPEKGIAVVTSPEGKVTEVPIDPDDYSVEPASAGGSAGGSAGGS [r10_568_JUSTAS] ... 0.343
SAGSPVVIKVSKVDSSGNWTLLEEIPIPPSEVSGVELVGDSLKILPPGSGGSYTFTIENSTVTVSIEESAGG [r19_408_JUSTAS] ... 0.465

**Query** Sample SAGGDMWMIKVEHPNGRPFQIMINPNKPEISIQFNDGETRTFPIPKDYTIEDLAKELPPGYKVEIHPMSAGG [r13_696_TrROS] — what was its folding stability dG unfold?
**Result** 2.25

---

# method-summary: folding stability dG unfold (combined trypsin and chymotrypsin); higher = more stable
Reported folding stability dG unfold by item:

Consider the reported folding stability dG unfold for these sequences:
SAPPTVKINWERVRRNGKRYYMIRVEITHPNNGKEREHTFMYDDPEDFLDNLLKLPNIDRVEIEDIYPMSAG [r14_464_TrROS] ... 2.12 kcal/mol
SAGGAVTSVSPGNGTTTVTVPISVPGSPVTLNIPTPDATLTPDPSGTVTVTLPPNGTYSITITGPRSDSAGG [r19_227_JUSTAS] ... < -1 kcal/mol
SAGGSAGGSAGGSGMTSTTYRLPEGNVVLVETFDPATGTVTLEIRGPPSVERTLTLPVASAGGSAGGSAGGS [r4_443_JUSTAS] ... 3.21 kcal/mol
SAGGSAGGSAGGPYVVKVKLKDGSVVELPVEEDHIPTIEDLVKAGIPPELIESVEIEPESAGGSAGGSAGGS [r10_565_TrMRF] ... 2.91 kcal/mol

**Query** Sample SAGGSAGGSAGKAKIVKIEKVKNKNGETYYIIKLEGKKEIFVIKDKNGKKKKIPLKELKPSAGGSAGGSAGG [r17_286_TrROS_Hall] — what was its folding stability dG unfold?
**Result** 2.11 kcal/mol

**Query** Moving on to the next sequence: SAGGSGSRIVVETITEYEVFETPTGKKKTKVFKTKKIVTETVPMSPADVAAYEAALAEGLGPGALASAGGSA [r2_327_JUSTAS]
**Result** -0.234 kcal/mol

**Query** Moving on to the next sequence: SAGGSAGGSAGLPPGDKVTISIPIVIPDGYMINSHITIDPDNGETEIEIQIYPLKDPDALSAGGSAGGSAGG [r11_695_TrROS]
**Result** 2.11 kcal/mol

---

Reported folding stability dG unfold by item:
# method-summary: folding stability dG unfold (combined trypsin and chymotrypsin); higher = more stable
Write the value in kcal/mol as a bare number.

Consider the reported folding stability dG unfold for these sequences:
SAGGGALVLPDPDVPDDLPLVVVDPENGTVTLLHFDRETGRVRARVVRLGDGVPEEEEAVFPVAPDALSAGG [r13_851_TrMRF] ... 0.078
SAGGSAGGSASVTTTTTPLPGDRTLTTTTYPDGTVKVTTYTVDTATGTVTSTSTTLSPATLTSAGGSAGGSA [r18_325_JUSTAS] ... 0.856
SAGGKTIMHMYMNPNGWFIRAKIKLDPDGKWKITDVEIYPMEMKYEDPNGKPREMPMFMIKIRIKPDSAGGS [r8_270_TrROS] ... 3.78

For the next question, use this sequence.
**Query** Sample SAGGSAGGSAGGENDWIPIRMEMTFKLPNGVKITIKMEMWVQPDGDILGMRIHDIEIEVPSAGGSAGGSAGG [r7_356_TrROS] — what was its folding stability dG unfold?
**Result** 4.54

---

# method-summary: folding stability dG unfold from chymotrypsin proteolysis; higher = more stable
Reported folding stability dG unfold by item:
Write the value in kcal/mol as a bare number.

**Query** Sample SAGGSAGGSAGPEITVVKAPDEGYYYLIKLKVTYTLRDPETTAPLAEFEVEYYFLDRGSASAGGSAGGSAGG [r17_124_TrMRF] — what was its folding stability dG unfold?
**Result** 4.91

---

# method-summary: folding stability dG unfold from chymotrypsin proteolysis; higher = more stable
Reported folding stability dG unfold by item:
Write the value in kcal/mol as a bare number.

Consider the reported folding stability dG unfold for these sequences:
SAGGSAGGGWITIPIYIIKMKRTRRDPDGKPKPLDPNDPEDFEVVPPRPFRIPLPPEEAKKLLKSAGGSAGG [r6_219_TrROS] ... -0.464
SAGGSAGGSDDSPEDAQKQQAKPEIKIKLHIRFPDGKEYDLDEPFEFPINGQPMRISSIDIVYSAGGSAGGS [r12_43_TrROS] ... 1.18
SAGGSAGGSAGGKATLGEDGFLVIEREVELPDGPYRPETLVIPLPELTPEEVERLLETESAGGSAGGSAGGS [r10_1096_TrMRF] ... 0.919
SAGGSAGGSAGGGSVVTTETSVSPNGVVTTTTTTTFLDPDGNPLGTTTTTTAHAAPPTTSAGGSAGGSAGGS [r10_403_JUSTAS] ... 1.8
SAGGSAGGSEKIKEALKELGYDVEIEEIEVKKNKNGKLEIKIKLKPGMSEEEKKRIEEALKKLSAGGSAGGS [r12_352_TrROS_Hall] ... 2.79

**Query** Sample SAGGESYPFIGRNPETNALIEVTVTKLESGEYLVNATITNPNGETVEFPFTFPANSLTPESEIDVTITSAGG [r13_959_TrMRF] — what was its folding stability dG unfold?
**Result** 1.21

**Query** Moving on to the next sequence: SAGGSAGGMVTITEVSYDPKIGKTFTLVTVKDPEGKETLVEVPLEEIEKLIEEVPEGRPVEIAPSAGGSAGG [r6_113_JUSTAS]
**Result** -0.983

**Query** Moving on to the next sequence: SAGGSAGGSAGMLKTIVIKELTPEAKKALLENPDLPEDAEVPTLVEELTVPVKRTPKGLVSAGGSAGGSAGG [r17_194_JUSTAS]
**Result** -0.0656
